Ref: ChEMBL document CHEMBL2417416

Molecular target: UniProt:Q96DB2
Sequence (Q96DB2 whole entry): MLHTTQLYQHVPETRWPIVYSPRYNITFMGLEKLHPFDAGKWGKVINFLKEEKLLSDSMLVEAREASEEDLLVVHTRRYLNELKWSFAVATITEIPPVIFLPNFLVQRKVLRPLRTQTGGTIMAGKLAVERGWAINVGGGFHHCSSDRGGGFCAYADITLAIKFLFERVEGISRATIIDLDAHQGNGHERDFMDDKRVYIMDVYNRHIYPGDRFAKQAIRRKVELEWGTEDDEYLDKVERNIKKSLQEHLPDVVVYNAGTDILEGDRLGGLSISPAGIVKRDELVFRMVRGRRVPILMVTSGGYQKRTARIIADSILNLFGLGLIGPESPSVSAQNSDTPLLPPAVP
Test: Inhibition of recombinant human HDAC11 enzyme using Ac-LeuGlyLys(Ac)-AMC as substrate after 15 to 30 mins
measured-endpoint: pKi
Note: pKi values are expressed as the negative base-10 logarithm of concentration in M.

// pKi value for CC(C)[C@H]1NC(=O)[C@@H](C)[C@@H](C/C=C\CCC(=O)O)NC(=O)[C@@H](Cc2ccc(O)cc2)NC(=O)[C@@H](C)NC1=O [AZUMAMIDE C] : 7.46

Note to self: pKi recorded for CC(C)[C@H]1NC(=O)[C@@H](C)[C@@H](C/C=C\CCC(=O)O)NC(=O)[C@@H](Cc2ccccc2)NC(=O)[C@@H](C)NC1=O [AZUMAMIDE E] was 7.22

---

Provide the recorded Ki for the entries that follow.
Target: Histone deacetylase 2 (Homo sapiens)
Sequence (Q92769 whole entry): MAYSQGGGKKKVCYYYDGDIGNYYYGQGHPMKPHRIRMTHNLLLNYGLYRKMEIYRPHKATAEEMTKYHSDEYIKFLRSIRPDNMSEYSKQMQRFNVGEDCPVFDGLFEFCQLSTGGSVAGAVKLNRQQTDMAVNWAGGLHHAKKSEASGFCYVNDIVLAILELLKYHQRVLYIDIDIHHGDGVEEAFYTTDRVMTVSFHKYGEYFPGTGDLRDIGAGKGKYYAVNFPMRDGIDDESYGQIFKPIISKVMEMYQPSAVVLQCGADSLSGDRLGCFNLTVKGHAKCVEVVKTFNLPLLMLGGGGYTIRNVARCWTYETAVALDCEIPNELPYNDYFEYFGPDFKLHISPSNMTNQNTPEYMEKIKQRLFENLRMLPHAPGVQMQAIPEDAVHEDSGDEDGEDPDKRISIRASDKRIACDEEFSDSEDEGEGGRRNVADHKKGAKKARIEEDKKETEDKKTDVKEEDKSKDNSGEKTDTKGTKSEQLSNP
Assay: Inhibition of recombinant human HDAC2 enzyme using flurogenic Ac-LeuGlyLys (Ac)-AMC as substrate after 15 to 30 mins
Write it as a number; the unit µM goes unstated.

Lab book: Ki of CC(C)[C@H]1NC(=O)[C@@H](C)[C@@H](C/C=C\CCC(N)=O)NC(=O)[C@@H](Cc2ccc(O)cc2)NC(=O)[C@@H](C)NC1=O [AZUMAMIDE B] noted as 3

The recorded Ki for CC(C)[C@H]1NC(=O)[C@@H](C)[C@@H](C/C=C\CCC(=O)O)NC(=O)[C@@H](Cc2ccc(O)cc2)NC(=O)[C@@H](C)NC1=O [AZUMAMIDE C] is 0.04

---

Biological target: Polyamine deacetylase HDAC10 (Homo sapiens, UniProt Q969S8)
Sequence (Q969S8 whole entry): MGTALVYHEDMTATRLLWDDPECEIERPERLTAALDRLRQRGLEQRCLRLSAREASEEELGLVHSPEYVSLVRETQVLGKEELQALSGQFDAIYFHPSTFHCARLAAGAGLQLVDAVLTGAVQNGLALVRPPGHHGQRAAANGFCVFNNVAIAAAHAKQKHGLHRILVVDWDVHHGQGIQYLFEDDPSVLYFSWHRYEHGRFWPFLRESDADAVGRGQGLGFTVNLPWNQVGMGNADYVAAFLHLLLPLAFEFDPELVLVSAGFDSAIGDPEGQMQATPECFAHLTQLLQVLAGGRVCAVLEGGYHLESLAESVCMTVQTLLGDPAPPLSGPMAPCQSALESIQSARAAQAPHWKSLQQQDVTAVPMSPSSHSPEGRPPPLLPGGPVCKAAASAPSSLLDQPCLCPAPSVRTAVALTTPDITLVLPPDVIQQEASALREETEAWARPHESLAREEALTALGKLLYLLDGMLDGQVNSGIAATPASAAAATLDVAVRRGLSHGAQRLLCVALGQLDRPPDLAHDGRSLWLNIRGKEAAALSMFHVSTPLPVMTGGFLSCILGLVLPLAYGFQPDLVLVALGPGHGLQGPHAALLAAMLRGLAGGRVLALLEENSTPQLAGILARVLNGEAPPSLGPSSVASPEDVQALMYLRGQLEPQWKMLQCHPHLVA
Assay: Inhibition of recombinant human HDAC10 enzyme using tetrapeptide Ac-ArgThr-Lys(Ac)Lys(Ac)-AMC as substrate after 15 to 30 mins
measured-endpoint: Ki (nM)
Report as a plain number; the unit nM is understood.

For CC(C)[C@H]1NC(=O)[C@@H](C)[C@@H](C/C=C\CCC(=O)O)NC(=O)[C@@H](Cc2ccc(O)cc2)NC(=O)[C@@H](C)NC1=O [AZUMAMIDE C] the compound record lists Ki as 10

compound CC(C)[C@H]1NC(=O)[C@@H](C)[C@@H](C/C=C\CCC(=O)O)NC(=O)[C@@H](Cc2ccccc2)NC(=O)[C@@H](C)NC1=O [AZUMAMIDE E] , Ki observed: 20

---

Biological target: Histone deacetylase 1 (Homo sapiens, UniProt Q13547)
Sequence (Q13547 whole entry): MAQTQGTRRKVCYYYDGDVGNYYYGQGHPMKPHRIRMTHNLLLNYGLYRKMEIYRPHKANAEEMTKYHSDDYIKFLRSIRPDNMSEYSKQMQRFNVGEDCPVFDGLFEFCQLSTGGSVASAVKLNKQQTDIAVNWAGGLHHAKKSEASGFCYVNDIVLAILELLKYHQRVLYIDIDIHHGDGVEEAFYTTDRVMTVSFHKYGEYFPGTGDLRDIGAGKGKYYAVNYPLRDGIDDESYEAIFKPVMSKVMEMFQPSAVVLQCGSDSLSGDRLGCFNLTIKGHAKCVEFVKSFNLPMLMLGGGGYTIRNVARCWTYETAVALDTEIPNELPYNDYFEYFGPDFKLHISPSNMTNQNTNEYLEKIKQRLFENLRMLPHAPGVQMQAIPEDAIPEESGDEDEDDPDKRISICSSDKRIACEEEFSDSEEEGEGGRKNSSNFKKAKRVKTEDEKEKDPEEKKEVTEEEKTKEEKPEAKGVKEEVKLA
Test: Inhibition of recombinant human HDAC1 enzyme using flurogenic Ac-LeuGlyLys (Ac)-AMC as substrate after 15 to 30 mins
For each record, write down the corresponding Ki.
Use nM as the unit, but write only the number.

Lab note: measured Ki of C/C=C1\NC(=O)[C@H]2CSSCC/C=C/[C@H](CC(=O)N[C@H](C(C)C)C(=O)N2)OC(=O)[C@H](C(C)C)NC1=O [ROMIDEPSIN] was 0.002

Noted for CC(C)[C@H]1NC(=O)[C@@H](C)[C@@H](C/C=C\CCC(N)=O)NC(=O)[C@@H](Cc2ccc(O)cc2)NC(=O)[C@@H](C)NC1=O [AZUMAMIDE B] : its Ki reads 5000

The compound listed as CC(C)[C@H]1NC(=O)[C@@H](C)[C@@H](C/C=C\CCC(=O)O)NC(=O)[C@@H](Cc2ccc(O)cc2)NC(=O)[C@@H](C)NC1=O [AZUMAMIDE C] shows Ki equal to 32
